- TESTED_ON: Muscarinic acetylcholine receptor M5 (Homo sapiens) (UniProt P08912)
- Sequence (P08912 whole entry, looked up): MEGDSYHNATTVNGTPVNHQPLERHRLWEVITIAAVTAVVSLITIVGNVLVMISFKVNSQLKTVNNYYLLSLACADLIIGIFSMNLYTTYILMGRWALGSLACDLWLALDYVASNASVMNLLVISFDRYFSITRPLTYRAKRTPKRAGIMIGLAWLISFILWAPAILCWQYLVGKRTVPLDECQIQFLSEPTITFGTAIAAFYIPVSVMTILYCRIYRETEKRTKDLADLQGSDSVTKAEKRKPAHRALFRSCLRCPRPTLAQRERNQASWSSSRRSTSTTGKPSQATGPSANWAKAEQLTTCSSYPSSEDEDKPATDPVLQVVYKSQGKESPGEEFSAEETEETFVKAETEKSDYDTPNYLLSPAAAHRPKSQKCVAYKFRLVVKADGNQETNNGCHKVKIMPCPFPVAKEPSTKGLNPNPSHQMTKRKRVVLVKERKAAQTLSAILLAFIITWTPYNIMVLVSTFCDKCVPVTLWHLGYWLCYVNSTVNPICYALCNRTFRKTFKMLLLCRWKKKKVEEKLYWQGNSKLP
- METHOD_DESCRIPTION: human M5 muscarinic receptor antagonists, primary screen, CHO cells, Fluo-8 calcium fluorescence (AID 624040)
- RUN_PARAMETERS: CHO-hM5 cells, ACh EC80, at 3 µM
The campaign covered roughly 360,000 compounds. About 2,100 (0.58%) were called active.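 Rule for the calls: active = inhibition above a per-plate cutoff, the mean of that plate's test compounds plus 3 SD (cut at about 27% in these data); inactive = the rest.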 This is one part of a sample in which actives are shown more often than they occur.
Labels: active, inactive

{"columns": ["COMPOUND", "LABEL_CLASS"],
 "data": [
  ["O=C(CNC1CCCCC1)NCC1(c2ccccc2)CCCC1", "active"],
  ["COC(=O)CN(C(=S)Nc1ccc(Cl)cc1)C1CC(=O)N(c2ccc(OC)cc2)C1=O (stereo not given)", "inactive"],
  ["Cn1cccc1C(=O)N1CCc2ccccc2C1", "inactive"],
  ["CN(CCCNC(=O)CN1C(=O)CC(C)(C)S(=O)(=O)c2ccccc21)C1CCCCC1", "inactive"],
  ["COc1cc(C(CCN2CCN(c3ccccc3)CC2)c2c(OC)cc(OC)c3ccc(=O)oc23)cc(OC)c1OC (stereo not given)", "inactive"],
  ["CC(C)(C)C(=O)c1c(N)[nH]c(C(=O)c2ccccc2)c1-c1ccc(F)cc1", "inactive"],
  ["O=C(Nc1ccc(OC(F)(F)F)cc1)c1ccc2c(c1)no[n+]2[O-]", "active"],
  ["CCCCN(C)Cc1c(C)[nH]c2ccc(Cl)cc2c1=O", "inactive"],
  ["CN1CCN(S(=O)(=O)c2cccc(C(=O)N3CCc4ccccc43)c2)CC1", "inactive"],
  ["Cc1ccccc1CSc1nnc(-c2ccccn2)n1N", "inactive"]
]}
